Every entry's value here was drawn from PubChem BioAssay AID1814.

# assay.explanation: Activators via SNCA 5'UTR binding, MLPCN (AID 1814)
# condition.label: alpha-synuclein 5'UTR reporter, activators screen; active compounds read low; tested at 7.5 µM
In all, about 300,000 compounds went through this assay and about 22,000 (7.3%) were called active. Roughly 2% stayed inconclusive and do not appear here. This excerpt belongs to a sample that is enriched for actives.
measurement.label: activity score (%)
Please reply with the bare figure in % and do not write the unit itself.

// below: answered compounds
| compound | observed.value |
| --- | --- |
| CCCCSc1nc2ccccc2[nH]1 | -86.8 |
| Cc1ccc(C(=O)Nc2nc3ccc(Cl)cc3s2)o1 | -183 |
| CCOC(=O)CSC1=C(C#N)C(c2sccc2C)CC(=O)N1 (stereo not drawn) | 75 |
| CCS(=O)(=O)n1nc(-c2ccc(OC)cc2)nc1SC | -98.6 |
| CCn1c2ccccc2c2cc(NC(=O)C/C(C)=N/NC(=O)c3ccccc3N)ccc21 | -110 |
| CC[n+]1cc(C)ccc1/C=C/c1ccc(N(C)C)cc1 | 90.6 |
| COc1ccc(NC(=O)CCS(=O)(=O)c2cc3c(cc2Cl)NC(=O)CO3)cc1OC | -91.8 |
| Cc1ccc(-c2csc(NC(=O)c3cccs3)n2)cc1 | -239 |
| CN(C)S(=O)(=O)N1CCC(Oc2cccc(C(=O)NCCCC3CCCC3)c2)CC1 | -70.6 |
| Cc1cccc(NC(=O)c2ccc3ccccc3n2)n1 | -103 |

activity score reported for this compound O=C(Nc1ccccc1Cl)Nc1cccc2cccnc12 : -162

So, COc1ccccc1CSc1nc2ccccc2[nH]1 ? Its activity score was -156

Reported activity score of O=[N+]([O-])c1ccc2c(c1)Nc1nc3ccccc3nc1N2 : -94.2

Note to self: activity score recorded for Cc1cccc(NC(=O)COc2ccccc2C)n1 was -109

Measured activity score, O=C(NCCOc1cccnc1)c1ccc(OC2CCN(Cc3ccccn3)CC2)cc1 : 95.3
